These entries and their values trace back to paper PMC9321663.

# Tested on: SOX17 (endoderm marker) in RUES2-GLR cells
# testName: DevTox GLR-Endo assay: decrease in percent SOX17-positive cells (AEID 3094, Sox17_dn)
# reportedConditions: tcpl plot AEID3094, COFF 20.3
This section presents molecules with their documented HIT−CALL values.

| molecule | experimentalResult |
| --- | --- |
| CC/C(=C(/CC)c1ccc(O)cc1)c1ccc(O)cc1 | 1 |

Proceed to the following item.
In plain terms, C[C@@H]1C[C@H]2[C@@H]3CCC4=CC(=O)C=C[C@]4(C)[C@@]3(F)[C@@H](O)C[C@]2(C)[C@@]1(O)C(=O)CO has a documented HIT−CALL of 1

* * *

# Tested on: SOX17 (endoderm marker) in RUES2-GLR cells
# testName: DevTox GLR-Endo assay: increase in percent SOX17-positive cells (AEID 3093, Sox17_up)
# Assay type: cell-based, human
# reportedConditions: Homo sapiens; tcpl plot AEID3093, maximum mean response; read-out: MAX_MEAN
Structures can show the parent of a compound that is named as a salt.
measurementLabel: Emax (%)
Numeric answer only, unit % assumed.

Known results for molecules:
| molecule | measurementUnits | Emax |
| --- | --- | --- |
| CO[C@H]1/C=C/O[C@@]2(C)Oc3c(C)c(O)c4c(O)c(c(/C=N/N5CCN(C)CC5)c(O)c4c3C2=O)NC(=O)/C(C)=C\C=C\[C@H](C)[C@H](O)[C@@H](C)[C@@H](O)[C@@H](C)[C@H](OC(C)=O)[C@@H]1C [Rifampicin] | % | 7.3 |
| Nc1cccc2c1C(=O)N(C1CCC(=O)NC1=O)C2=O (centres unmarked) [Pomalidomide] | % | 8.72 |
| O=C1NC(=O)C(c2ccccc2)(c2ccccc2)N1 | % | 11.2 |
| CC(C)Cc1ccc(C(C)C(=O)O)cc1 (centres unmarked) [Ibuprofen] | % | 11.6 |
| Cc1nc(Nc2ncc(C(=O)Nc3c(C)cccc3Cl)s2)cc(N2CCN(CCO)CC2)n1 [Dasatinib] | % | 5.98 |
| CS(=O)(=O)OCCCCOS(C)(=O)=O [Busulfan] | % | 7.27 |

The molecule O=C(O)c1cc(/N=N/c2ccc(S(=O)(=O)Nc3ccccn3)cc2)ccc1O [Sulfasalazine] on SOX17 (endoderm marker) in RUES2-GLR cells: Emax was 8.6

Lab note: molecule COc1cc2c(Nc3ccc(Br)cc3F)ncnc2cc1OCC1CCN(C)CC1 [Vandetanib] tested on SOX17 (endoderm marker) in RUES2-GLR cells; recorded Emax was 7.33

Entry CC1=C(/C=C/C(C)=C/C=C/C(C)=C/C(=O)O)C(C)(C)CCC1 : Emax on SOX17 (endoderm marker) in RUES2-GLR cells = 4.3

For the molecule CC[C@H](C)C(=O)O[C@H]1C[C@@H](C)C=C2C=C[C@H](C)[C@H](CC[C@@H]3C[C@@H](O)CC(=O)O3)[C@H]21 [Lovastatin] , the measured Emax on SOX17 (endoderm marker) in RUES2-GLR cells was -9.76

Emax of [H]/N=C(/NCCCCC)N/N=C/c1c[nH]c2ccc(OC)cc12 [Tegaserod Maleate] , assay on SOX17 (endoderm marker) in RUES2-GLR cells, is 6.89

Nc1ccn([C@@H]2O[C@H](CO)[C@@H](O)[C@@H]2O)c(=O)n1 [Cytarabine] tested on SOX17 (endoderm marker) in RUES2-GLR cells gave Emax: 12.2

* * *

# testName: DevTox GLR-Endo assay: decrease in total cell count, cytotoxicity (AEID 3098, CellCount_dn)
# reportedConditions: human, RUES2-GLR cells under directed endoderm differentiation
measurementLabel: CC50 at 48 h

Please review the entries below; each comes with its answer.
| molecule | CC50 at 48 h |
| --- | --- |
| O=C1CCC(N2C(=O)c3ccccc3C2=O)C(=O)N1 (stereo not drawn) [Thalidomide] | > 200 µM |
| CC(=O)Oc1ccccc1C(=O)O [Aspirin] | > 200 µM |

Lab note: next molecule to report on.
The reported value for C[C@](N)(Cc1ccc(O)c(O)c1)C(=O)O [Methyldopa] in terms of CC50 at 48 h is > 200 µM

* * *

Below is a list of entries, each paired with its recorded HIT−CALL value.
# Tested on: SOX17 (endoderm marker) in RUES2-GLR cells
# testName: DevTox GLR-Endo assay: decrease in percent SOX17-positive cells (AEID 3094, Sox17_dn)
# reportedConditions: tcpl plot AEID3094, COFF 20.3
# Description: The total test chemical incubation period was 48 h. Assay plate controls included non-differentiated pluripotent cells maintained in complete Essential 8 Flex medium (baseline control), endoderm differentiated cells (differentiation control), endoderm differentiated cells treated with DMSO (0.2%) (solvent control), and TGF-ß receptor inhibitor SB431542 (1 µM)-treated cells (developmental toxicant-positive control) (Figure S3). […]
Answer using only a numeral; do not append any unit.

| molecule | experimentalResult |
| --- | --- |
| O=C(O)c1cc(/N=N/c2ccc(S(=O)(=O)Nc3ccccn3)cc2)ccc1O | 0 |
| CC(C)Cc1ccc(C(C)C(=O)O)cc1 (stereo not drawn) | 1 |

The molecule CC1=C(/C=C/C(C)=C/C=C/C(C)=C\C(=O)O)C(C)(C)CCC1 , tested on SOX17 (endoderm marker) in RUES2-GLR cells, showed HIT−CALL of 1

* * *

# System: SOX17 (endoderm marker) in RUES2-GLR cells
# testName: DevTox GLR-Endo assay: increase in percent SOX17-positive cells (AEID 3093, Sox17_up)
# Format: cell-based, human
# reportedConditions: Homo sapiens; tcpl plot AEID3093, maximum mean response; read-out: MAX_MEAN
measurementLabel: Emax (%)
Supply the numeric figure in %, leaving out any unit text.

| compound | experimentalResult |
| --- | --- |
| NNC(=O)c1ccncc1 | 14 |

// field: Emax; key: CC/C(=C(/CC)c1ccc(O)cc1)c1ccc(O)cc1 ; value = 6.93

Reported Emax ( CCN(CC)CCNC(=O)c1c(C)[nH]c(/C=C2\C(=O)Nc3ccc(F)cc32)c1C ) = 0.538

Lab note: COc1cc2ncnc(Nc3ccc(F)c(Cl)c3)c2cc1OCCCN1CCOCC1 gave Emax of 10.5

Value of measured Emax for the entry CN(C)CCOC(c1ccccc1)c1ccccc1 [Diphenhydramine] : -0.267

* * *

# System: SOX17 (endoderm marker) in RUES2-GLR cells
# testName: DevTox GLR-Endo assay: increase in percent SOX17-positive cells (AEID 3093, Sox17_up)
# Assay type: cell-based, human
# reportedConditions: Homo sapiens; tcpl plot AEID3093, maximum mean response; read-out: MAX_MEAN
# Method: The total test chemical incubation period was 48 h. (Supplementary Materials).
Emax reference
Please reply with the bare figure in % and do not write the unit itself.

| molecule | Emax (%) |
| --- | --- |
| CC(=O)Oc1ccccc1C(=O)O [Aspirin] | -3.36 |

Entry Nc1nc2c(ncn2COCCO)c(=O)[nH]1 [Acyclovir] — recorded Emax = 6.68

Data point: CC(=O)Nc1ccc(O)cc1 [Acetaminophen] ; Emax = 11.3

Entry under test: CC(=O)CC(c1ccccc1)c1c(O)c2ccccc2oc1=O (stereo not drawn) [Warfarin] . Its Emax was 11.3

Emax recorded for this molecule, Cc1nc2sccn2c(=O)c1CCN1CCC(=C(c2ccc(F)cc2)c2ccc(F)cc2)CC1 [Ritanserin] , is -0.644

molecule COc1ccc2nc([S@@+]([O-])Cc3ncc(C)c(OC)c3C)[nH]c2c1 [Esomeprazole] , Emax observed: 0.101

The measured Emax associated with COC(=O)c1ccccc1C(=O)OC [Dimethyl Phthalate] reads 6.35

What the record says about CCCC(CCC)C(=O)O [Valproic Acid] : Emax is 7.73

Recorded Emax (molecule Nc1nc2ncc(CNc3ccc(C(=O)N[C@@H](CCC(=O)O)C(=O)O)cc3)nc2c(=O)[nH]1 [Folic Acid] ): 8.84

According to the records, this molecule CC1(C)S[C@@H]2[C@H](NC(=O)Cc3ccccc3)C(=O)N2[C@H]1C(=O)O [Penicillin G] displays Emax of 13.2

Please fill in: Emax reported for O=C(c1ccc(F)cc1)C1CCN(CCn2c(=O)[nH]c3ccccc3c2=O)CC1 [Ketanserin] = 5.18

Note to self: Emax recorded for O=C(O)c1ccccc1O [Salicylic Acid] was 8.74
